Target: human melanocortin-4 receptor (human, UniProt P32245 1-332)
Sequence (P32245 whole entry): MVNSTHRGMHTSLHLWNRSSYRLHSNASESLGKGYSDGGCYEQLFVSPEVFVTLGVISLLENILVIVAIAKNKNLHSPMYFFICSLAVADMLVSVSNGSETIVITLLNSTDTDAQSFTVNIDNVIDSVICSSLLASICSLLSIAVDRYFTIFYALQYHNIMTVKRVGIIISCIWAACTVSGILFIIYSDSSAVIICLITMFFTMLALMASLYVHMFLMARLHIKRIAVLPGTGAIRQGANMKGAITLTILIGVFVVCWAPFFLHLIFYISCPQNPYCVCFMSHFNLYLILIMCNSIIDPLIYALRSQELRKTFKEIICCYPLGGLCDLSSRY
Assay comment: cell-based or functional assay
Positions of bridges follow the written chain, without caps; N, C: chain ends. Non-standard residues stand in square brackets, D forms with d. dPhe(3,4,5-F3) = N[C@H](Cc1cc(F)c(F)c(F)c1)C(=O)O; dPhe(2-Cl) = N[C@H](Cc1ccccc1Cl)C(=O)O; dPhe(2-Me) = Cc1ccccc1C[C@@H](N)C(=O)O; dPhe(4-F) = N[C@H](Cc1ccc(F)cc1)C(=O)O; Orn = NCCC[C@H](N)C(=O)O
Property name: Intrinsic Activity, cAMP, 10 ng/mL Doxycycline (%)
Answers are plain numbers, in %.

{"Binder": "Ac-REQ[dPhe(4-F)]RW[Orn]-NH2 (lactam 2-7, also called No. 92) [Ac-Arg-cyclo(Glu-Gln-D-Phe(4-F)-Arg-Trp-Orn)-NH2]", "Measured result": 89}
{"Binder": "Ac-REQ[dPhe(2-Cl)]RW[Orn]-NH2 (lactam 2-7, also called No. 34) [Ac-Arg-cyclo(Glu-Gln-D-Phe(2-Cl)-Arg-Trp-Orn)-NH2]", "Measured result": 97}
{"Binder": "RDQXRWK (N-terminal Ac; D-Phe(4-CN) 4; lactam Asp 2-Lys 7; C-terminal NH2, also called No. 90) [Ac-Arg-cyclo(Asp-Gln-D-Phe(4-CN)-Arg-Trp-Lys)-NH2]", "Measured result": 96}
{"Binder": "Ac-REP[dPhe(4-F)]RW[Orn]-NH2 (lactam 2-7; also: acetate salt, acetate salt form; also called Ex 67) [Ac-Arg-cyclo(Glu-Pro-D-Phe(4-F)-Arg-Trp-Orn)-NH2]", "Measured result": 99}

Look up Intrinsic Activity, cAMP, 10 ng/mL Doxycycline for the entries below, preserving their order.
1. RDPXRWK (N-terminal Ac; D-Phe(4-F) 4; lactam Asp 2-Lys 7; C-terminal NH2, also called No. 103) [Ac-Arg-cyclo(Asp-Pro-D-Phe(4-F)-Arg-Trp-Lys)-NH2]
2. Ac-REN[dPhe(2-Me)]RW[Orn]-NH2 (lactam 2-7, also called No. 73) [Ac-Arg-cyclo(Glu-Asn-D-Phe(2-Me)-Arg-Trp-Orn)-NH2]
3. Ac-R[Orn]N[dPhe(3,4,5-F3)]RWE-NH2 (lactam 2-7) [Ac-Arg-cyclo(Orn-Asn-D-Phe(3,4,5-triF)-Arg-Trp-Glu)-NH2]

Response:
[100, 102, 100]

Source of measurements: patent US20100311648A1
